Assay: Stability indicating HPLC assay and related substances on storage (Example 3)
Type: physicochemical
Condition Context: 1 month, 60° C.
Returns: string. Value is rule met if measured Total Unknown is below 10%, and rule not met if it is greater than or equal to it.

Take a look at these entries with their results.
Compound	Label Class
CN1CCC23c4c5ccc(O)c4OC2C(OC2OC(C(=O)O)C(O)C(O)C2O)C=CC3C1C5.CN1CCC23c4c5ccc(O)c4OC2C(OC2OC(C(=O)O)C(O)C(O)C2O)C=CC3C1C5.O=C(O)C=CC(=O)O (centres unmarked) [Morphine-6-glucuronide maleate]	rule met
Br.CN1CC[C@]23c4c5ccc(O)c4O[C@H]2[C@@H](O[C@@H]2O[C@H](C(=O)O)[C@@H](O)[C@H](O)[C@H]2O)C=C[C@H]3[C@H]1C5 [Morphine-6-glucuronide hydrobromide]	rule met
CN1CC[C@]23c4c5ccc(O)c4O[C@H]2[C@@H](O[C@@H]2O[C@H](C(=O)O)[C@@H](O)[C@H](O)[C@H]2O)C=C[C@H]3[C@H]1C5.Cl [Morphine-6-glucuronide hydrochloride]	rule not met
CN1CCC23c4c5ccc(O)c4OC2C(OC2OC(C(=O)O)C(O)C(O)C2O)C=CC3C1C5.O=P(O)(O)O (centres unmarked) [Morphine-6-glucuronide phosphate]	rule met

Note: attention shifts to another entry.
For this compound, is Total Unknown lower than 10%? CN1CCC23c4c5ccc(O)c4OC2C(OC2OC(C(=O)O)C(O)C(O)C2O)C=CC3C1C5.CN1CCC23c4c5ccc(O)c4OC2C(OC2OC(C(=O)O)C(O)C(O)C2O)C=CC3C1C5.O=S(=O)(O)O (centres unmarked) [Morphine-6-glucuronide sulphate]
rule not met

###

The reader will find reported M6G Assay, Corrected for the salt form values listed item by item below.
Assay: Stability indicating HPLC assay and related substances on storage (Example 3)
Assay type: physicochemical
Condition Context: 3 months, 25° C./60% RH
Respond numerically; units are % w/w and should not be typed.

Molecule	M6G Assay, Corrected for the salt form, % w/w
CN1CC[C@]23c4c5ccc(O)c4O[C@H]2[C@@H](O[C@@H]2O[C@H](C(=O)O)[C@@H](O)[C@H](O)[C@H]2O)C=C[C@H]3[C@H]1C5.Cl [Morphine-6-glucuronide hydrochloride]	94.64
CN1CCC23c4c5ccc(O)c4OC2C(OC2OC(C(=O)O)C(O)C(O)C2O)C=CC3C1C5.O=P(O)(O)O (stereo not shown) [Morphine-6-glucuronide phosphate]	110.50
Br.CN1CC[C@]23c4c5ccc(O)c4O[C@H]2[C@@H](O[C@@H]2O[C@H](C(=O)O)[C@@H](O)[C@H](O)[C@H]2O)C=C[C@H]3[C@H]1C5 [Morphine-6-glucuronide hydrobromide]	101.30
CN1CCC23c4c5ccc(O)c4OC2C(OC2OC(C(=O)O)C(O)C(O)C2O)C=CC3C1C5.CN1CCC23c4c5ccc(O)c4OC2C(OC2OC(C(=O)O)C(O)C(O)C2O)C=CC3C1C5.O=S(=O)(O)O (stereo not shown) [Morphine-6-glucuronide sulphate]	85.24

Report measured M6G Assay, Corrected for the salt form; entry is CN1CCC23c4c5ccc(O)c4OC2C(OC2OC(C(=O)O)C(O)C(O)C2O)C=CC3C1C5.CN1CCC23c4c5ccc(O)c4OC2C(OC2OC(C(=O)O)C(O)C(O)C2O)C=CC3C1C5.O=C(O)C=CC(=O)O (stereo not shown) [Morphine-6-glucuronide fumarate]
98.11

Look up and report measured M6G Assay, Corrected for the salt form for this entry: CN1CCC23c4c5ccc(O)c4OC2C(OC2OC(C(=O)O)C(O)C(O)C2O)C=CC3C1C5.CN1CCC23c4c5ccc(O)c4OC2C(OC2OC(C(=O)O)C(O)C(O)C2O)C=CC3C1C5.O=C(O)C=CC(=O)O (stereo not shown) [Morphine-6-glucuronide maleate]
95.81

Given CN1CC[C@]23c4c5ccc(O)c4O[C@H]2[C@@H](O[C@@H]2O[C@H](C(=O)O)[C@@H](O)[C@H](O)[C@H]2O)C=C[C@H]3[C@H]1C5 [Morphine-6-glucuronide base, morphine-6-β-D-glucuronide] , respond with its M6G Assay, Corrected for the salt form.
100.27

###

Assay: Stability indicating HPLC assay and related substances on storage (Example 3)
Format: physicochemical
Condition Context: 1 month, 40° C./75% RH
Quantity Kind: Known Related Substances HN33177
Reply with a number, then the unit it belongs to.

Molecule	Quantity Kind	Result
CN1CCC23c4c5ccc(O)c4OC2C(OC2OC(C(=O)O)C(O)C(O)C2O)C=CC3C1C5.CN1CCC23c4c5ccc(O)c4OC2C(OC2OC(C(=O)O)C(O)C(O)C2O)C=CC3C1C5.O=C(O)C=CC(=O)O (centres unmarked) [Morphine-6-glucuronide fumarate]	Known Related Substances HN33177	0.70%
CN1CCC23c4c5ccc(O)c4OC2C(OC2OC(C(=O)O)C(O)C(O)C2O)C=CC3C1C5.CN1CCC23c4c5ccc(O)c4OC2C(OC2OC(C(=O)O)C(O)C(O)C2O)C=CC3C1C5.O=C(O)C=CC(=O)O (centres unmarked) [Morphine-6-glucuronide maleate]	Known Related Substances HN33177	0.65%
CN1CCC23c4c5ccc(O)c4OC2C(OC2OC(C(=O)O)C(O)C(O)C2O)C=CC3C1C5.O=P(O)(O)O (centres unmarked) [Morphine-6-glucuronide phosphate]	Known Related Substances HN33177	0.70%
Br.CN1CC[C@]23c4c5ccc(O)c4O[C@H]2[C@@H](O[C@@H]2O[C@H](C(=O)O)[C@@H](O)[C@H](O)[C@H]2O)C=C[C@H]3[C@H]1C5 [Morphine-6-glucuronide hydrobromide]	Known Related Substances HN33177	0.74%

In the following, a different molecule is considered.
Supply reported Known Related Substances HN33177 belonging to this molecule: CN1CC[C@]23c4c5ccc(O)c4O[C@H]2[C@@H](O[C@@H]2O[C@H](C(=O)O)[C@@H](O)[C@H](O)[C@H]2O)C=C[C@H]3[C@H]1C5 [Morphine-6-glucuronide base, morphine-6-β-D-glucuronide]
0.85%

###

Assay: Stability indicating HPLC assay and related substances on storage (Example 3)
Assay type: physicochemical
Condition Context: 3 months, 40° C./75% RH
Quantity Kind: M6G Assay, Anhydrous basis
Please format your answer as a value with the unit trailing.

Compound	Quantity Kind	Result
Br.CN1CC[C@]23c4c5ccc(O)c4O[C@H]2[C@@H](O[C@@H]2O[C@H](C(=O)O)[C@@H](O)[C@H](O)[C@H]2O)C=C[C@H]3[C@H]1C5 [Morphine-6-glucuronide hydrobromide]	M6G Assay, Anhydrous basis	85.85 % w/w
CN1CCC23c4c5ccc(O)c4OC2C(OC2OC(C(=O)O)C(O)C(O)C2O)C=CC3C1C5.CN1CCC23c4c5ccc(O)c4OC2C(OC2OC(C(=O)O)C(O)C(O)C2O)C=CC3C1C5.O=S(=O)(O)O (stereo not shown) [Morphine-6-glucuronide sulphate]	M6G Assay, Anhydrous basis	68.38 % w/w
CN1CC[C@]23c4c5ccc(O)c4O[C@H]2[C@@H](O[C@@H]2O[C@H](C(=O)O)[C@@H](O)[C@H](O)[C@H]2O)C=C[C@H]3[C@H]1C5 [Morphine-6-glucuronide base, morphine-6-β-D-glucuronide]	M6G Assay, Anhydrous basis	97.15 % w/w

Now consider the entry below.
Output measured M6G Assay, Anhydrous basis for this item: CN1CCC23c4c5ccc(O)c4OC2C(OC2OC(C(=O)O)C(O)C(O)C2O)C=CC3C1C5.CN1CCC23c4c5ccc(O)c4OC2C(OC2OC(C(=O)O)C(O)C(O)C2O)C=CC3C1C5.O=C(O)C=CC(=O)O (stereo not shown) [Morphine-6-glucuronide maleate]
78.73 % w/w

###

# reported M6G Assay, As is basis; entries follow
Assay: Stability indicating HPLC assay and related substances on storage (Example 3)
Format: physicochemical
Condition Context: 3 months, 40° C./75% RH
# value in % w/w; strip the unit string

The cases that follow already have their M6G Assay, As is basis on record.
Molecule	M6G Assay, As is basis / % w/w
CN1CCC23c4c5ccc(O)c4OC2C(OC2OC(C(=O)O)C(O)C(O)C2O)C=CC3C1C5.CN1CCC23c4c5ccc(O)c4OC2C(OC2OC(C(=O)O)C(O)C(O)C2O)C=CC3C1C5.O=C(O)C=CC(=O)O (stereo not shown) [Morphine-6-glucuronide fumarate]	71.64
CN1CCC23c4c5ccc(O)c4OC2C(OC2OC(C(=O)O)C(O)C(O)C2O)C=CC3C1C5.CN1CCC23c4c5ccc(O)c4OC2C(OC2OC(C(=O)O)C(O)C(O)C2O)C=CC3C1C5.O=S(=O)(O)O (stereo not shown) [Morphine-6-glucuronide sulphate]	59.39
CN1CC[C@]23c4c5ccc(O)c4O[C@H]2[C@@H](O[C@@H]2O[C@H](C(=O)O)[C@@H](O)[C@H](O)[C@H]2O)C=C[C@H]3[C@H]1C5.Cl [Morphine-6-glucuronide hydrochloride]	51.00
Br.CN1CC[C@]23c4c5ccc(O)c4O[C@H]2[C@@H](O[C@@H]2O[C@H](C(=O)O)[C@@H](O)[C@H](O)[C@H]2O)C=C[C@H]3[C@H]1C5 [Morphine-6-glucuronide hydrobromide]	83.14
CN1CCC23c4c5ccc(O)c4OC2C(OC2OC(C(=O)O)C(O)C(O)C2O)C=CC3C1C5.CN1CCC23c4c5ccc(O)c4OC2C(OC2OC(C(=O)O)C(O)C(O)C2O)C=CC3C1C5.O=C(O)C=CC(=O)O (stereo not shown) [Morphine-6-glucuronide maleate]	72.37

Provide M6G Assay, As is basis value for the following molecule: CN1CCC23c4c5ccc(O)c4OC2C(OC2OC(C(=O)O)C(O)C(O)C2O)C=CC3C1C5.O=P(O)(O)O (stereo not shown) [Morphine-6-glucuronide phosphate]
79.02

Look up and report measured M6G Assay, As is basis for this entry: CN1CC[C@]23c4c5ccc(O)c4O[C@H]2[C@@H](O[C@@H]2O[C@H](C(=O)O)[C@@H](O)[C@H](O)[C@H]2O)C=C[C@H]3[C@H]1C5 [Morphine-6-glucuronide base, morphine-6-β-D-glucuronide]
88.67
